Origin of the recorded values: a collection of fitness landscapes (doi:10.1126/science.1257360)

B1: PhoQ; a variant is named by its letters at X, in order, P23837 (parent)
chain: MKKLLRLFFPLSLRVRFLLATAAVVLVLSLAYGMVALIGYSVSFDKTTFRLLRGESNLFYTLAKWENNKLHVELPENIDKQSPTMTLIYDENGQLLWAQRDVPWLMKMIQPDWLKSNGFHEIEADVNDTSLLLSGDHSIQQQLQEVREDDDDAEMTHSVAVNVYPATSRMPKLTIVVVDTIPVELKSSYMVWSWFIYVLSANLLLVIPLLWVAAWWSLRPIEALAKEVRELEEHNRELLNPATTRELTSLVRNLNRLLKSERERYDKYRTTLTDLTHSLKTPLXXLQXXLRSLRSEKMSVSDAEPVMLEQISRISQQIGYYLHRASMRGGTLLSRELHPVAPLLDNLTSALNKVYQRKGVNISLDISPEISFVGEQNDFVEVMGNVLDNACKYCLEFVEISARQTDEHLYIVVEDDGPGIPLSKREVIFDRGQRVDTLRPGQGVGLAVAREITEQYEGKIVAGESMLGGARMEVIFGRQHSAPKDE

Variants of: B1
METHOD: enrichment ratio after two sorts for PhoP signalling (ratio (wild type AVST 3.29)); higher = more functional
TEST CONTEXT: with PhoP (E. coli)
In all, about 140,000 sequences were measured (“enrichment ratio after two sorts for PhoP signalling”: median about 0, highest 2% from about 11 on). This is one part of a sample in which the highest values are shown more often than they occur.
# Lookup of reported enrichment ratio keyed by entry

Here is how some variants turned out for enrichment ratio.
MUTATION ANNOTATION: MAAY
enrichment ratio: ≤ 0.25

MUTATION ANNOTATION: SMLA
enrichment ratio: 6.54

MUTATION ANNOTATION: AMVQ
enrichment ratio: 13.1

MUTATION ANNOTATION: AMTI
enrichment ratio: 11.6

Problem: Identify the reported enrichment ratio for the following entry. QMSW
Result: ≤ 0.25

Problem: Output measured enrichment ratio for this item: QELL
Result: ≤ 0.25

Problem: Specify reported enrichment ratio for the variant shown: YGLM
Result: 13

Problem: Provide measured enrichment ratio value, entry: AQVC
Result: 9.47

Problem: Please indicate enrichment ratio recorded for GLLA
Result: ≤ 0.25
